Listing: pIC50 of selected compounds
test: Inhibition of almond beta-glucosidase assessed as reduction of p-nitrophenol release using p-nitrophenyl-glycoside as substrate by spectrophotometric analysis; set-up: species or system Prunus dulcis
Please note pIC50 is a logarithmic value: minus log10 of concentration in mol/L. Answer with that number alone.

Record excerpt, results attached:
structure: OC[C@H]1NC[C@@H](O)[C@@H]1O
measured: 3.01
//
structure: O[C@@H]1[C@@H](O)CN[C@H]1c1ccc(-c2ccccc2)cc1
measured: 3.63
//
structure: O[C@H]1[C@H](O)CN[C@@H]1c1ccc(-c2ccccc2)cc1
measured: 3.55

Next up:
Entry O[C@H]1[C@H](O)CN[C@@H]1CCCc1ccccc1 ; pIC50 = 3.25

====

Listing: inhibition of selected compounds
target: UniProt Q2KIM0; assay: Inhibition of bovine kidney alpha-L-fucosidase assessed as reduction of p-nitrophenol release using p-nitrophenyl-glycoside as substrate at 1000 uM by spectrophotometric analysis; assay type: tissue-based
Sequence (Q2KIM0 whole entry): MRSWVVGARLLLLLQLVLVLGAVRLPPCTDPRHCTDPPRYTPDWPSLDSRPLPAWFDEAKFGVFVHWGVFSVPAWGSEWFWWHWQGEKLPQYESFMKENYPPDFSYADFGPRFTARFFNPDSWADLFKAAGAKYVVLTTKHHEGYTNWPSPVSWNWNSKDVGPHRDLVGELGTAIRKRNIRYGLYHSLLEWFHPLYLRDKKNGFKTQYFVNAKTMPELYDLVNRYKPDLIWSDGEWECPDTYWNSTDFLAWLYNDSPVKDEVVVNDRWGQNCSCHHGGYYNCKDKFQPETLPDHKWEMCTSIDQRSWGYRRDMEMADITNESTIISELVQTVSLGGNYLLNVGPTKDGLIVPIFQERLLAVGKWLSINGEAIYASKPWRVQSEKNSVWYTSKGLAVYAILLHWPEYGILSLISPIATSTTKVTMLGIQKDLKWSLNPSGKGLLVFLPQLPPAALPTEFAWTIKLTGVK
Dear colleague, please return just the value in %, with no unit written.

structure: O[C@H]1[C@H](O)CN[C@@H]1CCCc1ccccc1
inhibition (%): 6.2

structure: O[C@@H]1[C@@H](O)CN[C@H]1c1ccc(F)cc1
inhibition (%): 0

structure: O[C@@H]1[C@@H](O)CN[C@H]1c1ccccc1
inhibition (%): 0

structure: OC[C@H]1NC[C@@H](O)[C@@H]1O
inhibition (%): 9

Entry O[C@@H]1[C@@H](O)CN[C@H]1c1ccc(-c2ccccc2)cc1 ; inhibition = 0

Entry O[C@H]1[C@H](O)CN[C@@H]1c1ccccc1 ; inhibition = 0

====

organism: Bos taurus; experiment: Inhibition of bovine liver beta-glucuronidase assessed as reduction of p-nitrophenol release using p-nitrophenyl-glycoside as substrate at 1000 uM by spectrophotometric analysis
Decision: inhibition compared against 4%; not below it gives 1.0, below it gives 0.0.

Please review the following examples before continuing.
compound: O[C@H]1[C@H](O)CN[C@@H]1c1ccccc1
groupLabel: 1.0
//
compound: OC[C@@H]1NCC(O)C1O (single isomer, unassigned)
groupLabel: 1.0
//
compound: O[C@H]1[C@H](O)CN[C@@H]1c1ccc(F)cc1
groupLabel: 0.0

Hello, I need to know if Cc1ccc([C@@H]2NC[C@H](O)[C@H]2O)cc1 has measured inhibition not below 4%. Thanks!
0.0

Hello, I need to know if O[C@H]1[C@H](O)CN[C@@H]1c1ccc(-c2ccccc2)cc1 has measured inhibition not below 4%. Thanks!
0.0

Hello, I need to know if O[C@@H]1[C@@H](O)CN[C@H]1c1ccc(-c2ccccc2)cc1 has measured inhibition not below 4%. Thanks!
1.0

====

species: Bos taurus; experiment: Inhibition of bovine liver beta-galactosidase assessed as reduction of p-nitrophenol release using p-nitrophenyl-glycoside as substrate at 1000 uM by spectrophotometric analysis
Decision: inhibition compared against 40%; not below it gives TRUE, below it gives FALSE.

compound: OC[C@H]1NC[C@@H](O)[C@@H]1O
groupLabel: FALSE

Hello, I need to know if O[C@@H]1[C@@H](O)CN[C@H]1c1ccc(F)cc1 has measured inhibition not below 40%. Thanks!
FALSE

Hello, I need to know if OC[C@@H]1NCC(O)C1O (single isomer, unassigned) has measured inhibition not below 40%. Thanks!
FALSE

Hello, I need to know if O[C@@H]1[C@@H](O)CN[C@H]1c1ccccc1 has measured inhibition not below 40%. Thanks!
TRUE

====

test system: Prunus dulcis; test: Inhibition of almond beta-glucosidase assessed as reduction of p-nitrophenol release using p-nitrophenyl-glycoside as substrate at 1000 uM by spectrophotometric analysis
experimentalEndpoint: inhibition (%)
Dear colleague, please return just the value in %, with no unit written.

compound: Cc1ccc([C@@H]2NC[C@H](O)[C@H]2O)cc1
experimentalEndpoint: inhibition
unitOfMeasurement: %
measured: 11

compound: O[C@H]1[C@H](O)CN[C@@H]1c1ccccc1
experimentalEndpoint: inhibition
unitOfMeasurement: %
measured: 3.9

compound: O[C@@H]1[C@@H](O)CN[C@H]1c1ccc(F)cc1
experimentalEndpoint: inhibition
unitOfMeasurement: %
measured: 12.6

compound: Cc1ccc([C@H]2NC[C@@H](O)[C@@H]2O)cc1
experimentalEndpoint: inhibition
unitOfMeasurement: %
measured: 13.5

compound: O[C@H]1[C@H](O)CN[C@@H]1c1ccc(F)cc1
experimentalEndpoint: inhibition
unitOfMeasurement: %
measured: 15

Entry OC[C@@H]1NCC(O)C1O (single isomer, unassigned) ; inhibition = 32.6

Entry O[C@@H]1[C@@H](O)CN[C@H]1c1ccccc1 ; inhibition = 3.4

Entry O[C@H]1[C@H](CCCc2ccccc2)NC[C@@H]1O ; inhibition = 48.8

====

organism: Bos taurus; experiment: Inhibition of bovine liver beta-glucuronidase assessed as reduction of p-nitrophenol release using p-nitrophenyl-glycoside as substrate at 1000 uM by spectrophotometric analysis
experimentalEndpoint: inhibition (%)
Dear colleague, please return just the value in %, with no unit written.

structure: O[C@H]1[C@H](O)CN[C@@H]1CCCc1ccccc1
unitOfMeasurement: %
measured: 0.3

Entry OC[C@H]1NC[C@@H](O)[C@@H]1O ; inhibition = 6.3

Entry Cc1ccc([C@H]2NC[C@@H](O)[C@@H]2O)cc1 ; inhibition = 0.3

Entry O[C@@H]1[C@@H](O)CN[C@H]1c1ccc(F)cc1 ; inhibition = 0

Entry O[C@H]1[C@H](CCCc2ccccc2)NC[C@@H]1O ; inhibition = 0.3

Entry O[C@@H]1[C@@H](O)CN[C@H]1c1ccccc1 ; inhibition = 15

====

molecular target: Lysosomal acid glucosylceramidase (Homo sapiens); test: Inhibition of human GCase assessed as reduction of 4-methylumbelliferone liberation using 4-methylumbelliferyl-beta-glucopyranoside as substrate preincubated with enzyme for 45 mins followed by substrate addition and measured after 30 mins by fluorescence spectrophotometry
Sequence (P04062 whole entry): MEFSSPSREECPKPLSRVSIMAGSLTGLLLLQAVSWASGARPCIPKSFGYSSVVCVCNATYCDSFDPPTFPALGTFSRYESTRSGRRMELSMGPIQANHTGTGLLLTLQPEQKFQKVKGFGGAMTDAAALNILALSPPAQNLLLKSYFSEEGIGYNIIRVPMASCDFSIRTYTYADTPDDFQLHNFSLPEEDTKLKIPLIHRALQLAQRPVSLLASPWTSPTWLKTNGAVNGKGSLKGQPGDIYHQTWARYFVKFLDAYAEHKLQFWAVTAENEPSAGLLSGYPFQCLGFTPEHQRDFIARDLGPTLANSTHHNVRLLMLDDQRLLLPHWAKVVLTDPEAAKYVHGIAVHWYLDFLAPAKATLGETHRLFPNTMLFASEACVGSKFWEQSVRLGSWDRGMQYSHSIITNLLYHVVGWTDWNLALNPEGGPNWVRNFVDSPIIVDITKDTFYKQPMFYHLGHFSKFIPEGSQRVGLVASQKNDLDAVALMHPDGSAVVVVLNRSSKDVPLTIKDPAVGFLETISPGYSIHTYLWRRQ
experimentalEndpoint: pIC50
Please note pIC50 is a logarithmic value: minus log10 of concentration in mol/L. Answer with that number alone.

Entry CCCCCCC[C@H]1N[C@H](CO)[C@@H](O)[C@@H]1O ; pIC50 = 4.42

Entry CCCCCCCC[C@H]1N[C@H](CO)[C@@H](O)[C@@H]1O ; pIC50 = 5.21

Entry CCCCCCCCCCCCC[C@H]1N[C@H](CO)[C@@H](O)[C@@H]1O ; pIC50 = 6.11

====

test system: Escherichia coli; assay: Inhibition of Escherichia coli beta-glucuronidase assessed as reduction of p-nitrophenol release using p-nitrophenyl-glycoside as substrate at 1000 uM by spectrophotometric analysis
Listing: inhibition of selected compounds
Dear colleague, please return just the value in %, with no unit written.

compound: O[C@@H]1[C@@H](O)CN[C@H]1c1ccccc1
inhibition / %: 8.5

Entry OC[C@@H]1NCC(O)C1O (single isomer, unassigned) ; inhibition = 8

Entry O[C@H]1[C@H](CCCc2ccccc2)NC[C@@H]1O ; inhibition = 42.7

Entry O[C@H]1[C@H](O)CN[C@@H]1c1ccc(F)cc1 ; inhibition = 43.4

Entry O[C@H]1[C@H](O)CN[C@@H]1c1ccccc1 ; inhibition = 20.3

Entry OC[C@H]1NC[C@@H](O)[C@@H]1O ; inhibition = 5.3

Entry O[C@@H]1[C@@H](O)CN[C@H]1c1ccc(F)cc1 ; inhibition = 26.8

====

Listing: pIC50 of selected compounds
target: Sucrase-isomaltase, intestinal (Rattus norvegicus, UniProt P23739); test: Inhibition of rat small intestinal sucrase assessed as reduction of p-nitrophenol release using p-nitrophenyl-glycoside as substrate by spectrophotometric analysis; type: tissue-based, Small intestine
Sequence (P23739 1-1013 limits assumed): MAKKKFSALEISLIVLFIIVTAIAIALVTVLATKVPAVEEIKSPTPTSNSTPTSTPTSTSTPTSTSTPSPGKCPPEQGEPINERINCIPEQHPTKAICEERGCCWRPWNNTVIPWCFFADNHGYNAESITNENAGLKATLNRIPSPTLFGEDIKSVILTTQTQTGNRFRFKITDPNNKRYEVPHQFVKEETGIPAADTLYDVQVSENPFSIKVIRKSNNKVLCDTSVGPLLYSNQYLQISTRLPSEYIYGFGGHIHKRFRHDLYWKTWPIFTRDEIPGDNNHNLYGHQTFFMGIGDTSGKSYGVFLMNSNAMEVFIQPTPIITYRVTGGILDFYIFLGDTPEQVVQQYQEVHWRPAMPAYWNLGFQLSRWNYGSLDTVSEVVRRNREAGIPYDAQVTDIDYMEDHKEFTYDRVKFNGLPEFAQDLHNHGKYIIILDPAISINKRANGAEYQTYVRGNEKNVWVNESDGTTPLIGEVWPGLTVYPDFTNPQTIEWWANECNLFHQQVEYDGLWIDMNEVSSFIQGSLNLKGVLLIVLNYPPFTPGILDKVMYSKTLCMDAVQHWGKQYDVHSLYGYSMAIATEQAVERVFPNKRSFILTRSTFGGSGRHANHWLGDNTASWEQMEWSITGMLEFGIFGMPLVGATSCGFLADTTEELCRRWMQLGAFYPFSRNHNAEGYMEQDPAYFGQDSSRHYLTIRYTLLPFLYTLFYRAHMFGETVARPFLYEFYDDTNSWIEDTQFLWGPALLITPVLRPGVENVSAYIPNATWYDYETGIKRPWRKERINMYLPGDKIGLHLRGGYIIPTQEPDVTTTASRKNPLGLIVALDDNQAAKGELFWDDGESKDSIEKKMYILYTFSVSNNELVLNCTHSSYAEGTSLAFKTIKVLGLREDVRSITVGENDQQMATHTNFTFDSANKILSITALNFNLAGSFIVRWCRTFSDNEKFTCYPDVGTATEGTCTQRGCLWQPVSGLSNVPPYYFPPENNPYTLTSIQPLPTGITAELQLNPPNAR
Sequence (P23739 1014-1841 limits assumed): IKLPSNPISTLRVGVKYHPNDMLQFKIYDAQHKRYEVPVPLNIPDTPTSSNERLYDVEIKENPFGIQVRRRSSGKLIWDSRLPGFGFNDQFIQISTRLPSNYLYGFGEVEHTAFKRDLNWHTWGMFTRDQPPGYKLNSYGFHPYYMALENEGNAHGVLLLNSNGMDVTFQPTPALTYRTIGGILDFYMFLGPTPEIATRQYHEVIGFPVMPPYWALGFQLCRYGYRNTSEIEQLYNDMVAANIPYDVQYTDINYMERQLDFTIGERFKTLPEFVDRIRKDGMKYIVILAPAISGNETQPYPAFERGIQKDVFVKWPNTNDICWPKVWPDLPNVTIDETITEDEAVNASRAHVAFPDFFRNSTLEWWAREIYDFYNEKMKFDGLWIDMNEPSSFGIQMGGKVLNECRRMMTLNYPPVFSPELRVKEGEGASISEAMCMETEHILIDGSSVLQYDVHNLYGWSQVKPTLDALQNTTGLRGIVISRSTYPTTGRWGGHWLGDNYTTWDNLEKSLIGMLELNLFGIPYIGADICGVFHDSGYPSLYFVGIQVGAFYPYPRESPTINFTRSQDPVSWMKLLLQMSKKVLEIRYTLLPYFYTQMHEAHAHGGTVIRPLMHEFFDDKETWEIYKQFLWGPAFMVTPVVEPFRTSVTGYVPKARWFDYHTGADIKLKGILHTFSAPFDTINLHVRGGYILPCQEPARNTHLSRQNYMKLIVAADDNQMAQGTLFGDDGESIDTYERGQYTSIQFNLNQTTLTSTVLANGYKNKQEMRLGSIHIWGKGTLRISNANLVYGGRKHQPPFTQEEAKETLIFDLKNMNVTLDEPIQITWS
Please note pIC50 is a logarithmic value: minus log10 of concentration in mol/L. Answer with that number alone.

structure: O[C@@H]1[C@@H](O)CN[C@H]1c1ccc(-c2ccccc2)cc1
targetSystem: Sucrase-isomaltase, intestinal (Rattus norvegicus, UniProt P23739)
pIC50: 3.24
--
structure: Cc1ccc([C@@H]2NC[C@H](O)[C@H]2O)cc1
targetSystem: Sucrase-isomaltase, intestinal (Rattus norvegicus, UniProt P23739)
pIC50: 3.41

Entry O[C@H]1[C@H](O)CN[C@@H]1CCCc1ccccc1 ; pIC50 = 3.58

====

Listing: inhibition of selected compounds
tested on: Helix pomatia; assay: Inhibition of snail beta-mannosidase assessed as reduction of p-nitrophenol release using p-nitrophenyl-glycoside as substrate at 1000 uM by spectrophotometric analysis

Record excerpt, results attached:
structure: O[C@@H]1[C@@H](O)CN[C@H]1c1ccc(-c2ccccc2)cc1
inhibition: 14.9%
--
structure: O[C@H]1[C@H](O)CN[C@@H]1c1ccc(-c2ccccc2)cc1
inhibition: 9.7%
--
structure: O[C@@H]1[C@@H](O)CN[C@H]1c1ccc(F)cc1
inhibition: 2.2%

Note to self: inhibition of O[C@H]1[C@H](O)CN[C@@H]1CCCc1ccccc1 with Helix pomatia was 5.6%

Note to self: inhibition of O[C@H]1[C@H](CCCc2ccccc2)NC[C@@H]1O with Helix pomatia was 5.2%

Note to self: inhibition of O[C@H]1[C@H](O)CN[C@@H]1c1ccc(F)cc1 with Helix pomatia was 4.8%
